assay explanation: Cellular viability qHTS for adrenocortical cancer (ACC) cell line SW-13 (AID 1963989);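 further: cells grown in serum-free medium with ITS supplement; on the % scale 0 is the no-effect control and ±100 the full control effect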
experimental conditions: SW-13 ACC cells viability, CellTiter-Glo, 48 h; stronger effect = lower value
Text: PI: Naris Nilubol, MD Surgical Oncology Program, National Cancer Institute (NCI) National Institute of Health (NIH), Bethesda, Maryland Adrenocortical cancer (ACC) is a rare malignancy with poor survival outcomes and few treatment options. Currently, mitotane is the only FDA-approved therapy for ACC. […] Through a quantitative high-throughput drug screen (qHTS), we identified auranofin (AF), a thioredoxin reductase (TXNRD) inhibitor, as a promising candidate drug. […]
Results filed as inconclusive are left out.
experimental readout: activity (max response) (%)
Answers are plain numbers, in %.

Some solved cases for reference:
molecule	experimental readout	recorded value
O=c1c(O)c(-c2ccc(O)c(O)c2)oc2cc(O)ccc12	activity (max response)	0.454
CC(C)=CCC/C(C)=C/CC/C(C)=C/CCC(=O)OC/C=C(\C)CCC=C(C)C	activity (max response)	14.2
COc1cc2ncn(-c3cc(OCc4ccccc4S(C)(=O)=O)c(C#N)s3)c2cc1OC	activity (max response)	-11.8
C[C@H]1C[C@H]2[C@@H]3CCC4=CC(=O)C=C[C@]4(C)[C@H]3C(=O)C[C@]2(C)[C@@]1(O)C(=O)CO	activity (max response)	-6.73

Below are 7 molecules. Give each one its activity (max response).
1. CC(N=C(NC#N)Nc1ccncc1)C(C)(C)C (configuration not stated)
2. COc1ccc(S(=O)(=O)Nc2nnc(CC(C)C)s2)cc1
3. NC1CCC(N[C@@H]2C[C@H]2c2ccccc2)CC1 (some centres not stated)
4. CNC(=O)c1cc(COc2nnc(Nc3ccc(Cl)cc3)c3ccoc23)ccn1
5. O=C1CCC[C@@H]2[C@H]3CCC[N+]4([O-])CCC[C@@H](CN12)[C@@H]34 (some centres not stated)
6. O=c1[nH]cnc2nc[nH]c12
7. Cc1ccc(C(=O)C(=O)O)cc1C

1.19
-5.12
-23.4
-21.4
-8.5
10.3
1.9

Below are 3 molecules. Give each one its activity (max response).
1. Cc1nccn1CC1CCc2c(c3ccccc3n2C)C1=O (configuration not stated)
2. CC(C)(C)C(O)/C=C/c1ccc2c(c1)OCO2 (configuration not stated)
3. COC(=O)N(C)c1c(N)nc(-c2nn(Cc3ccccc3F)c3ncccc23)nc1N

[-14.2, -8.69, -4.16]

Below are 6 molecules. Give each one its activity (max response).
1. CC(C)(CO)n1cc(C(=O)c2cncc(NC(=O)Cc3ccc(Cl)cn3)c2)c2cnc(N)nc21
2. CCn1nc(C2CCN(C(=O)CCO)CC2)nc1-c1cnc(N)c(-c2nnc(C(C)(C)C)o2)n1
3. CC(=O)[C@H]1CC[C@H]2[C@@H]3C=CC4=CC(=O)CC[C@@]4(C)[C@@H]3CC[C@]12C
4. Cc1onc(-c2c(Cl)cccc2Cl)c1C(=O)N[C@@H]1C(=O)N2[C@@H]1SC(C)(C)[C@@H]2C(=O)O
5. OCCCc1ccccc1
6. CCN(CC)CCNC(=O)c1ccc(N)cc1

1: -13.5; 2: -18.1; 3: -20.4; 4: 1.28; 5: 4.32; 6: 13

Below are 6 molecules. Give each one its activity (max response).
1. CCCCCN(C)CCC(O)(P(=O)(O)O)P(=O)(O)O
2. Cc1[nH]nc(C(F)(F)F)c1Cc1sc2c(c1C(=O)N1C[C@](C)(O)CO1)c(=O)n(C)c(=O)n2C(C)C
3. CCOc1ccccc1C(N)=O
4. CC(C)=CCC/C(C)=C/CC/C(C)=C/C(=O)OCC(=O)[C@@]1(O)CC[C@H]2[C@@H]3CCC4=CC(=O)C=C[C@]4(C)[C@H]3[C@@H](O)C[C@@]21C
5. CC[C@H](Nc1ncnc2nc[nH]c12)c1oc2ccccc2c(=O)c1-c1cccc(F)c1
6. COc1ccc(COc2ccc(Cc3cnc(N)nc3N)cc2OC)cc1

-15.6
14.8
2.11
9.99
-13.2
-16.4

Below are 7 molecules. Give each one its activity (max response).
1. O=C(c1cc(O)c(O)c(O)c1)c1ccc(O)c(O)c1O
2. Oc1ccccc1C=NCc1ccccc1
3. CN(C)c1ccc(C2Nc3ccc4ccccc4c3C3=C2C(=O)CC(C)(C)C3)cc1Br (configuration not stated)
4. N#CSCC(=O)O
5. CC(=O)OCCN1C(=O)c2c(C)nc3ccc(S(=O)(=O)N4CCOCC4)cc3c2C1=O
6. CCCCCCCC/C=C/C(=O)O
7. Cc1ccc(NC(=O)C2(c3ccc4c(c3)OC(F)(F)O4)CC2)nc1-c1cccc(C(=O)O)c1

1: 4.03; 2: 6.8; 3: -5.19; 4: 4.51; 5: -3.53; 6: -1.5; 7: 4.62

Below are 2 molecules. Give each one its activity (max response).
1. Cc1[nH]cnc1CN1CCN(C(=O)N[C@@H](CC(C)C)C(=O)O)[C@@H](Cc2ccccc2)C1=O
2. COCCNc1cc(NC(=O)N2CCCc3cc(CN4CCN(C)CC4=O)c(C=O)nc32)ncc1C#N

1. 6.54
2. -2.64

Below are 2 molecules. Give each one its activity (max response).
1. O=C1CC(c2c[nH]c3ccc(F)cc23)C(=O)N1 (configuration not stated)
2. O=C(O)CCc1nc2ccccc2[nH]1

1. -18.5
2. 0.871

Below are 4 molecules. Give each one its activity (max response).
1. C[C@@H]1O[C@@H](O[C@@H]2\C=C/C=C\C=C/C=C\C[C@H](C)OC(=O)/C=C\[C@H]3O[C@@H]3C[C@H](O)C[C@]3(O)C[C@@H](O)[C@@H](C(=O)O)[C@H](C2)O3)[C@H](O)[C@H](N)[C@@H]1O
2. Cc1ccc(O)c(-n2nc3ccccc3n2)c1
3. CO/N=C1\CN(c2nc3c(cc2F)c(=O)c(C(=O)O)cn3C2CC2)CC1CN (configuration not stated)
4. Cc1c(N(C)CS(=O)(=O)O)c(=O)n(-c2ccccc2)n1C

1. 8.59
2. -8.34
3. -3.25
4. 3.83

Using known records, supply activity (max response) for `C=CCn1c(=O)n([C@@H]2O[C@H](CO)[C@@H](O)[C@H]2O)c2nc(N)[nH]c(=O)c21`
10.8
